In this section we review reported IC50 values for a set of molecules.
MEASUREMENT_TARGET: Tumor necrosis factor (Homo sapiens)
Sequence (P01375 whole entry): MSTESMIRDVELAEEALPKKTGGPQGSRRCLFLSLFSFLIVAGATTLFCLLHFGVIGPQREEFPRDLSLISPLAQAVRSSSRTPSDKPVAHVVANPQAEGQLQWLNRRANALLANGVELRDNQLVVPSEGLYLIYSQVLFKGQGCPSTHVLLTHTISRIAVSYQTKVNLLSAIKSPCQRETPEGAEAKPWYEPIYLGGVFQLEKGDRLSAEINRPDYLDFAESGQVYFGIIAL
ASSAY_PROTOCOL: analog potency on TNFa NF-kB signaling – cell-based, revised, SAR follow-up (AID 2337)
Format: functional
The source made the active and inactive calls.

{"SMILES": "CCCCn1c(SCC(=O)Nc2nnc(C(C)C)s2)nc2c1c(=O)n(C)c(=O)n2C", "IC50": "5.82 µM (active)"}
{"SMILES": "O=C(Nc1cccc([N+](=O)[O-])c1)c1ccc2ccccc2c1O", "IC50": "4.72 µM (active)"}
{"SMILES": "Nc1nc2ccccc2n1Cc1ccccc1Cl", "IC50": "12.5 µM (active)"}

Lab note: next molecule to report on.
Hello, please tell me recorded IC50 for this one: O=C(CSc1nc2ccccc2c(=O)n1Cc1ccccc1)Nc1ccc(Br)cc1C(=O)O 5.7 µM (active)

---

MEASUREMENT_TARGET: Replicative DNA helicase DnaB (Mycobacterium tuberculosis)
ASSAY_PROTOCOL: DnaB intein splicing inhibitors, dose response, biochemical, cell-free fluorescence (AID 449749)
Type: functional
Active and inactive are the calls of the source.
One label from this list, please: y = active, n = inactive

These solved cases illustrate the format of a correct answer.
{"MOLECULE": "CC(C)CCn1c(N)c(C(=O)NCc2cccs2)c2nc3ccccc3nc21", "CLASS_ASSIGNMENT": "y"}
{"MOLECULE": "CNC(=O)c1nnsc1S(=O)(=O)c1ccc(Cl)cc1", "CLASS_ASSIGNMENT": "y"}
{"MOLECULE": "CCCC(=O)N(C1CC(C)C(C#N)(C#N)C1(C#N)C#N)N(C)C (stereo not drawn)", "CLASS_ASSIGNMENT": "y"}
{"MOLECULE": "CC(c1ccc(O)cc1)(c1ccc(O)cc1)c1ccc(CCBr)cc1", "CLASS_ASSIGNMENT": "y"}
{"MOLECULE": "O=C(OCn1ncc(Cl)c(Cl)c1=O)c1ccc(F)cc1", "CLASS_ASSIGNMENT": "y"}
{"MOLECULE": "Cc1ccc(C)c(NC(=O)CSc2n[nH]c(-c3ccccn3)n2)c1", "CLASS_ASSIGNMENT": "y"}

Assay outcome for N#CC(C#N)=NNc1ccc(S(=O)(=O)N2CCCC2)cc1 : what was it? y

Assay outcome for O=c1c(Cl)c(Cl)cnn1Cc1ccccc1Cl : what was it? y

Assay outcome for CCOC(=O)c1cnc2ccc(C)cc2c1Sc1ccccc1 : what was it? y

Assay outcome for CCC(CC)C(=O)NCc1ccc2c(c1)cc(C)n2C : what was it? n

Assay outcome for Cc1ccccc1N1C(=O)C(Cl)=C(N2CCOCC2)C1=O : what was it? y

Assay outcome for CC(C)C(=O)N1CCN(c2nc(-c3ccccc3)c3c(c2C#N)CCCC3)CC1 : what was it? y

Assay outcome for COC(CN(C(=O)CCl)C(C(=O)NC1CCCCC1)c1ccc(C)cc1)OC (stereo not drawn) : what was it? n

---

In this section we review reported AC50 values for a set of molecules.
ASSAY_PROTOCOL: reduction of Shn3 3'UTR-driven luciferase in osteoblasts – cell-based, Clone20 osteoblasts, firefly luciferase, cherry-picked, dose response (AID 624132);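 also: firefly luciferase luminescence from reporter carrying the Shn3 3'UTR in osteoblasts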
Assay type: functional
Calls of active or inactive are those of the source.

Observe how each entry below is paired with its result.
{"MOLECULE": "CC(=O)N1c2ccc(S(=O)(=O)N3CCC(C(=O)Nc4cccc(F)c4)CC3)cc2CC1C (centres undefined)", "AC50": "4.54 µM (active)"}
{"MOLECULE": "Sc1nnc(COc2cccc3ccccc23)n1Cc1ccccc1", "AC50": "48 µM (active)"}
{"MOLECULE": "O=C(c1ccccc1)C(CN1CCCCC1)c1ccccc1 (centres undefined)", "AC50": "2.41 µM (active)"}

Lab note: next molecule to report on.
Hello, please tell me recorded AC50 for this one: Cc1nn(C)c(C(=O)NCc2ccc(Cl)cc2)c1Cl 1.74 µM (active)

---

MEASUREMENT_TARGET: Streptokinase A (Streptococcus pyogenes serotype M1)
Sequence (P10520 whole entry): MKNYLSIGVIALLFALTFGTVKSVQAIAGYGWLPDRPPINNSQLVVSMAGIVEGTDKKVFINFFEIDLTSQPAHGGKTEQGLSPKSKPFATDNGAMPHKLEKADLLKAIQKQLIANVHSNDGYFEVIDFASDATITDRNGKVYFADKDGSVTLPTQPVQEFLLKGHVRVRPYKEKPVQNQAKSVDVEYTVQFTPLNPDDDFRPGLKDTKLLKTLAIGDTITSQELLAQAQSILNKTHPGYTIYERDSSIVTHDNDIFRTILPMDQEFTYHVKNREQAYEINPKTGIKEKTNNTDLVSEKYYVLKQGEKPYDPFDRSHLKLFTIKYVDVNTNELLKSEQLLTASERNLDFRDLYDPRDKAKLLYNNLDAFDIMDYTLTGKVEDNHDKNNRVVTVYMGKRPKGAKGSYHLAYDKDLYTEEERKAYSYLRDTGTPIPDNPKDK
ASSAY_PROTOCOL: viability-normalized secreted streptokinase activity reduction – plasminogen activation absorbance, OD405, dose response (AID 1914);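 also: secreted streptokinase activity via plasminogen activation per viability signal from cell pellet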
Assay type: functional, Streptococcus pyogenes M1 GAS
Activity calls are given as the source filed them.
MEASUREMENT_KIND: EC50

{"COMPOUND": "NC(=O)N/N=C(/CCCCCC/C(=N\\NC(N)=O)c1ccccc1)c1ccccc1", "RESULT": "> 150 µM (not active)"}
{"COMPOUND": "CCOC(=O)c1ccc(Oc2c[nH]nc2-c2ccc(OCC(=O)NN)cc2O)cc1", "RESULT": "> 150 µM (not active)"}
{"COMPOUND": "CCOC(=O)c1sc(NC(=O)Nc2cccc(Cl)c2)cc1C", "RESULT": "11.2 µM (active)"}
{"COMPOUND": "COc1ccc2c(c1)c(CC(=O)NCc1cc([N+](=O)[O-])ccc1O)c(C)n2C(=O)c1ccc(Cl)cc1", "RESULT": "20.2 µM (active)"}
{"COMPOUND": "COc1cc(/C(C)=C/c2ccccc2)c2c(c1)oc1ccccc12", "RESULT": "20.9 µM (active)"}

Hello, please tell me recorded EC50 for this one: Cc1cc(C)nc(SCC(=O)NC2=NN=C(c3ccc(Br)cc3)CS2)n1 > 150 µM (not active)

Hello, please tell me recorded EC50 for this one: CCCCc1nc2cc(C(=O)N3CCC(OCCOC)CC3)ccc2o1 > 150 µM (not active)

Hello, please tell me recorded EC50 for this one: O=C(C1=C(O)C(=O)N(Cc2ccco2)C1c1cccc(Cl)c1)c1ccco1 (stereo not given) > 150 µM (not active)

Hello, please tell me recorded EC50 for this one: COC(=O)c1c(NC(=O)Cc2cccs2)sc2c1CCCC2 17.7 µM (active)

Hello, please tell me recorded EC50 for this one: Cc1ccc(F)c(NC(=O)/C(C#N)=C(\O)c2ccc(C(C)(C)C)cc2)c1 > 150 µM (not active)

---

In this section we review reported IC50 values for a set of compounds.
MEASUREMENT_TARGET: Calpain-2 catalytic subunit (Sus scrofa)
Sequence (P43367 whole entry): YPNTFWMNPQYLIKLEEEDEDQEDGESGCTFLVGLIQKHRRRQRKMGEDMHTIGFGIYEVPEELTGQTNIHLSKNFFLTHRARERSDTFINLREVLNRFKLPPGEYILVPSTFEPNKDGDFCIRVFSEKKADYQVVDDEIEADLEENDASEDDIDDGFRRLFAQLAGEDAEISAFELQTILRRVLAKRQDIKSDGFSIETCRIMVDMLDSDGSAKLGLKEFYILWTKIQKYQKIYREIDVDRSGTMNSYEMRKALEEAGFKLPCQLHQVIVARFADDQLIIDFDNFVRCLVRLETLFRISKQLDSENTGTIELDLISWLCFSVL
ASSAY_PROTOCOL: m-calpain protease blockers, concentration series – biochemical, fluorogenic peptide substrate, dose response (AID 1420)
Type: functional

Observe how each entry below is paired with its result.
{"COMPOUND": "CN1C(=O)/C(=C/c2ccccc2Cl)Sc2ccc(C(=O)NCc3cccnc3)cc21", "MEASUREMENT_KIND": "IC50", "RESULT": "5.27 µM (not active)"}
{"COMPOUND": "Cc1nn(Cc2cccc(C(=O)NC(C)c3ccc(C(C)(C)C)cc3)c2)c(C)c1[N+](=O)[O-] (stereo unspecified)", "MEASUREMENT_KIND": "IC50", "RESULT": "6.98 µM (not active)"}
{"COMPOUND": "CC(=O)Nc1ccc(S(=O)(=O)Nc2cccc3[nH]ncc23)cc1", "MEASUREMENT_KIND": "IC50", "RESULT": "> 50 µM (not active)"}
{"COMPOUND": "CC(C)CNS(=O)(=O)c1ccc(CCC(=O)Nc2cc(Cl)ccc2Oc2ccccc2)cc1", "MEASUREMENT_KIND": "IC50", "RESULT": "5.08 µM (not active)"}
{"COMPOUND": "Cc1ccccc1NC(=O)COC(=O)CCc1ccccc1", "MEASUREMENT_KIND": "IC50", "RESULT": "20.8 µM (not active)"}

Hello, please tell me recorded IC50 for this one: CC1=C(C(=O)OCC(C)C)C23C(=O)c4ccccc4C2(O1)OC(N)=C3C#N (stereo unspecified) > 50 µM (not active)

---

MEASUREMENT_TARGET: Rac GTPase-activating protein 1 (Homo sapiens)
Sequence (Q9H0H5 whole entry): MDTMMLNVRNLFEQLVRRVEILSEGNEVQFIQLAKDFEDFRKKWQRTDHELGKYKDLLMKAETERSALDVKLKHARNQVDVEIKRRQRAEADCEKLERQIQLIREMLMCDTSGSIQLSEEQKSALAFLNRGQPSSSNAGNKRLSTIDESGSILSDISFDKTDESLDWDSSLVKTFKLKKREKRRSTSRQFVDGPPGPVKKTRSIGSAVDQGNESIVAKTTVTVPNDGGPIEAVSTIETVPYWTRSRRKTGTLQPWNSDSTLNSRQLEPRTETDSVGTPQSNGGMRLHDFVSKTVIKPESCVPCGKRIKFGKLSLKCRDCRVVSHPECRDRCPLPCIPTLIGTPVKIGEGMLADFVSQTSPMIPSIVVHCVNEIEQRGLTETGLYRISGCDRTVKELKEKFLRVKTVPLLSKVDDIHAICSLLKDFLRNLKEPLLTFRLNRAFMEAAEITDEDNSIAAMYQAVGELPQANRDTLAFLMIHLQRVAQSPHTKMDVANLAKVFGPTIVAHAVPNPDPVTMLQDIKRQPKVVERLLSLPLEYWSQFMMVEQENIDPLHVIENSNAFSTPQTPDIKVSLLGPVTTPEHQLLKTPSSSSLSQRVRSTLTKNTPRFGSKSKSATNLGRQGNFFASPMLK
ASSAY_PROTOCOL: blockers of MgcRacGAP-driven Rac1 GTP hydrolysis – biochemical, ADP Hunter fluorescence, primary and confirmatory, confirmation (AID 624330)
Format: functional
Active and inactive are the calls of the source.
MEASUREMENT_KIND: IC50

{"SMILES": "Cc1cc2[nH]c3c(c[n+](C)c4ccccc34)c2cc1C", "IC50": "36.2 µM (active)"}
{"SMILES": "O=C(O)CCn1cc(C=C2C(=O)NC(=S)NC2=O)c(-c2ccccc2)n1", "IC50": "86.5 µM (active)"}
{"SMILES": "O=[N+]([O-])c1cccc(/C=N/n2c(S)nnc2-c2cccnc2)c1", "IC50": "31.9 µM (active)"}
{"SMILES": "COc1cc(/C=N/N=C(\\N)c2nonc2N)ccc1O", "IC50": "18.9 µM (active)"}
{"SMILES": "COc1cc(CC(=O)OCC(=O)Nc2ccc(N(C)C)cc2)cc(OC)c1OC", "IC50": "53.3 µM (active)"}

Hello, please tell me recorded IC50 for this one: COc1cc(/C=N/NC(=O)CN(Cc2ccco2)S(=O)(=O)c2ccccc2)ccc1O 40 µM (active)
